# Experimental details: TB CFU imaging, starved microorganism, inhibitor dose response, confirmatory, dry powder (AID 743450)
Inconclusive results are not listed. Activity calls are given as the source filed them. No rule for the calls is given here.
Respond only with the outcome that fits, drawn from active, inactive

**Q:** Hi, do you know how Cn1c(NC(=O)c2ccccc2)nc2cccc(Cl)c21 came out in this test?
**A:** active

**Q:** GET /call?item= CN(C)c1cccc(C(=O)Nc2nc3ccccc3n2C)c1 returns the recorded outcome of this test.
**A:** active

**Q:** Write down the call the test reported for this compound. Item: Cc1ccc(C(=O)Nc2nc3ccccc3n2C)cc1
**A:** active

**Q:** Tell me the recorded outcome of this test for Cn1c(NC(=O)c2ccccc2)nc2cc(F)ccc21 .
**A:** active

**Q:** Identify the outcome logged in this assay for the compound shown: Cn1c(NC(=O)c2ccccc2)nc2c3ccncc3ccc21
**A:** active

**Q:** Status in this test for O=C(Nc1nc2ccccc2n1C1CC1)c1ccccc1 ?
**A:** active

**Q:** For Cc1cc(C(=O)Nc2nc3ccccc3n2C)c(C)o1 , which call appears in the assay record?
**A:** active

**Q:** Identify the outcome logged in this assay for the compound shown: COc1ccccc1C(=O)Nc1nc2ccccc2n1C
**A:** active

**Q:** Any idea what this test logged for Cn1c(NC(=O)c2ccccc2)nc2cc(Cl)ccc21 ?
**A:** active

**Q:** Assay result, entry O=C(Nc1nc2ccccc2n1CCN1CCCCC1)c1ccccc1 — outcome?
**A:** active

**Q:** So what was the verdict on O=C(Nc1nc2ccccc2n1Cc1ccccc1)c1ccccc1 in this test?
**A:** active

**Q:** Hi, sorry to bother you, what did the test record for Cn1c(NC(=O)c2ccc(Cl)cc2)nc2ccccc21 ?
**A:** active

**Q:** Please share the test call associated with Cn1c(NC(=O)c2ccccn2)nc2ccccc21 .
**A:** active

**Q:** # outcome recorded in this test, key = Cc1cccc(C(=O)Nc2nc3ccccc3n2C)c1
**A:** active

**Q:** // return assay outcome for O=C(Nc1nc2ccccc2[nH]1)c1ccccc1
**A:** active

**Q:** # lookup: test call for Cn1c(NC(=O)c2cccc3ccccc23)nc2ccccc21
**A:** active

**Q:** Check the results log: what was the call for Cn1c(NC(=O)c2ccccc2)nc2ccc3ncccc3c21 ?
**A:** active

**Q:** Each compound tested received a call. Report the one for COc1cccc(C(=O)Nc2nc3ccccc3n2C)c1 .
**A:** active

**Q:** So what was the verdict on CCCCn1c(NC(=O)c2ccccc2)nc2ccccc21 in this test?
**A:** active

**Q:** Please indicate how the test categorized Cn1c(NC(=O)c2ccccc2F)nc2ccccc21 .
**A:** active

**Q:** Per the assay record, what outcome was assigned to O=C(Nc1nc2ccccc2n1-c1ccccc1)c1ccccc1 ?
**A:** inactive

**Q:** Hi team, can someone confirm the assay call for Cn1c(NC(=O)c2ccc(F)cc2)nc2ccccc21 ?
**A:** active

**Q:** Dear all, I need the recorded test outcome for Cn1c(NC(=O)c2ccncc2)nc2ccccc21 , thank you.
**A:** active

**Q:** Call for entry Cn1c(NC(=O)c2ccccc2)nc2c3nccnc3ccc21 :
**A:** active

**Q:** Which outcome did this test record for the compound Cn1c(NC(=O)c2ccccc2)nc2c3cccnc3ccc21 ?
**A:** active

**Q:** Identify the outcome logged in this assay for the compound shown: Cn1c(NC(=O)c2cccc(Cl)c2)nc2ccccc21
**A:** active

**Q:** Which outcome was entered for the compound COc1ccc(C(=O)Nc2nc3ccccc3n2C)cc1OC in this test?
**A:** active

**Q:** What was the test verdict on CCn1c(NC(=O)c2ccccc2)nc2ccccc21 ?
**A:** active

**Q:** Assay result, entry CC(C)Oc1ccc(C(=O)Nc2nc3ccccc3n2C)cc1 — outcome?
**A:** active

**Q:** What classification did COc1ccc(C(=O)Nc2nc3ccccc3n2C)cc1 end up with in this test?
**A:** active

**Q:** Per the assay record, what outcome was assigned to CC(C)n1c(NC(=O)c2ccccc2)nc2ccccc21 ?
**A:** active

**Q:** Please let me know the test result on file for Cc1ccc2c(c1)nc(NC(=O)c1ccccc1)n2C .
**A:** active

**Q:** // outcome(item) with item = Cn1c(NC(=O)c2ccc(-c3ccccc3)cc2)nc2ccccc21
**A:** active

**Q:** Could you please tell me the result logged for Cn1c(NC(=O)c2ccccc2)nc2ccc(F)cc21 in this assay?
**A:** active

**Q:** Short answer needed: outcome of this test for Cn1c(NC(=O)c2ccccc2)nc2ncccc21 ?
**A:** active

**Q:** Answer briefly: the call reported for Cn1c(NC(=O)c2cccc(F)c2)nc2ccccc21 in this assay.
**A:** active

**Q:** Please state the recorded outcome for this compound: Cn1c(NC(=O)c2ccccc2)nc2cc(C#N)ccc21
**A:** active

**Q:** Field: outcome | Entry: Cn1c(NC(=O)c2ccccc2)nc2c3ncccc3ccc21
**A:** active

**Q:** Kindly provide the recorded test outcome for the following compound: COc1ccc2c(c1)nc(NC(=O)c1ccccc1)n2C
**A:** active

**Q:** What did this assay record as the result for COCCn1c(NC(=O)c2ccccc2)nc2ccccc21 ?
**A:** active

**Q:** State the result this test recorded for Cn1c(NC(=O)c2ccc(F)c(F)c2)nc2ccccc21 .
**A:** active

**Q:** Would you mind telling me which call this test gave Cn1c(NC(=O)c2ccc(OC(F)(F)F)cc2)nc2ccccc21 ?
**A:** active

**Q:** Per the assay record, what outcome was assigned to Cn1c(NC(=O)c2ccc(C(C)(C)C)cc2)nc2ccccc21 ?
**A:** active

**Q:** Recorded test call requested for Cn1c(NC(=O)c2cccc(OC(F)F)c2)nc2ccccc21
**A:** active

**Q:** I would be grateful if you could indicate the recorded call for Cn1c(NC(=O)c2ccc3ccccc3c2)nc2ccccc21 .
**A:** active

**Q:** Recorded call for Cn1c(NC(=O)c2ccccc2C(F)(F)F)nc2ccccc21 ?
**A:** active
